Value source: patent US5344843A

Target: CAT-1 (carnitine acyltransferase 1) (Rattus norvegicus, UniProt Q63704)
Construct: This preparation is used as the isolated mitochondrial preparation; from tissue; host or cells: rat heart (atria removed), isolated mitochondria
Assay: Secondary Screen--Inhibition of CAT-1 in intact cardiac myocytes (hypoxia-induced increase in long-chain acylcarnitines)
Type: cell-based
Details: isolated rat cardiac myocytes, 50% inhibition of hypoxia-induced increase in long-chain acylcarnitines
Task for the reader: assign each of the following compounds its reported pIC50.
As a rule, pIC50 stands for the negative log10 of the concentration, concentration in M.

Data request: Could you share which pIC50 value was measured for O=C(O)C(=O)c1c(F)cc(OCCOc2ccc3ccccc3c2)cc1F [Example 201] ?
Data returned: 5.15

Data request: Same question for O=C(O)C(=O)c1ccc(OCC(=O)c2ccc3ccccc3c2)cc1 [Example 157] please.
Data returned: 6.52

Data request: Further, for O=C(O)C(=O)c1ccc(OCCCc2ccccc2)cc1 [Example 23] ?
Data returned: 4.43

Data request: Same again, this time with CN(O)C(=O)C(=O)c1ccc(OCCOc2ccc3ccccc3c2)cc1 [Example 299]
Data returned: 5.10

---

Target: CAT-1 (carnitine acyltransferase 1) (Rattus norvegicus, UniProt Q63704)
Construct: This preparation is used as the isolated mitochondrial preparation; from tissue; host or cells: rat heart (atria removed), isolated mitochondria
Sequence (Q63704 1-772): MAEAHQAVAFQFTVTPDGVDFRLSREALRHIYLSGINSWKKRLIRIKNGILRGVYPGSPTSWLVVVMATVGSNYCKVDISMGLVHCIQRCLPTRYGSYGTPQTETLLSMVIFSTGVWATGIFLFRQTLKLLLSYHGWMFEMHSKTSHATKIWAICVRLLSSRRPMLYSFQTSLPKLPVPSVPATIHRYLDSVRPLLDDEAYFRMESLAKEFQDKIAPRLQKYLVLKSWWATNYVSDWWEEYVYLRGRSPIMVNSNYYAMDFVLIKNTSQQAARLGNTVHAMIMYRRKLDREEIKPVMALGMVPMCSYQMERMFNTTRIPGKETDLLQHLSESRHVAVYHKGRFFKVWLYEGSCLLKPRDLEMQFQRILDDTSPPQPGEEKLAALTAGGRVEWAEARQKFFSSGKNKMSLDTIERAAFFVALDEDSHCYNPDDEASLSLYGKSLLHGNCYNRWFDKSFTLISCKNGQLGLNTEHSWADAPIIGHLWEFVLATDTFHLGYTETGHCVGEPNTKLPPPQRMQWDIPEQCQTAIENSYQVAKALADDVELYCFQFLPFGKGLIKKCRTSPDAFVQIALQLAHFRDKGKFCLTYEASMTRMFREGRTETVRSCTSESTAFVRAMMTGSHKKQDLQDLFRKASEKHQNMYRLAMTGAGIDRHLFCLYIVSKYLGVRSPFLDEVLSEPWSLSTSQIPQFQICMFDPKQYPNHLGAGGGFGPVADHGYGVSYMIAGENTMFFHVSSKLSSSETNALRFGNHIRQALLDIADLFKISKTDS
Assay: Secondary Screen--Inhibition of CAT-1 in intact cardiac myocytes (hypoxia-induced increase in long-chain acylcarnitines)
Format: cell-based
Details: isolated rat cardiac myocytes, 50% inhibition of hypoxia-induced increase in long-chain acylcarnitines
Kindly supply the reported log10 of IC50 values for the records listed here.
Record value = log10 of IC50 given in µM.

Data request: I am curious: what log10 of IC50 value has been reported for O=C(O)/C(=N/O)c1ccc(OCCOc2ccc3ccccc3c2)s1 [Example 302] ?
Data returned: -0.05

Data request: Can you check O=C(OCC(O)CO)C(=O)c1ccc(OCCOc2ccc3ccccc3c2)cc1 (racemic) [Example 104] next?
Data returned: 0.08

Data request: // next record O=C(O)C(=O)c1ccc(OCCCc2ccc3ccccc3c2)cc1 [Example 94]
Data returned: 1.08

Data request: Queued: CCC(C)(C)C(=O)Oc1cccc2ccc(OCCOc3ccc(C(=O)C(=O)O)cc3)cc12 [Example 134]
Data returned: -0.40

Data request: Can you handle O=C(O)C(=O)c1ccc(OCCOC23CC4CC(CC(C4)C2)C3)cc1 [Example 103] next?
Data returned: 1.60

Data request: Thanks! And CCC(C)(C)C(=O)OCc1cccc(C)c1OCCOc1ccc([C@H](N)C(=O)O)cc1 [Example 298] ?
Data returned: 1.48

---

Biological target: CAT-1 (carnitine acyltransferase 1) (Rattus norvegicus, UniProt Q63704)
Construct: This preparation is used as the isolated mitochondrial preparation; from tissue; host or cells: rat heart (atria removed), isolated mitochondria
Assay: Primary Screen--Inhibition of CAT-1 in isolated mitochondria
Format: biochemical
Settings: rat heart mitochondria, reduction of palmitoyl carnitine formation by 50%; read-out: Primary Screen IC50
Lab note: compare IC50 with 2000 nM, writing y if less and n if equal or more.

Data request: Below 2000 nM on IC50? Entry `O=C(O)C(=O)c1ccc(OCC(=O)c2cccc3ccccc23)cc1`
Data returned: y

Data request: Same lookup for `C[N+](C)(C)CCOC(=O)C(=O)c1ccc(OCCOc2ccc3ccccc3c2)s1` , please.
Data returned: y

Data request: Moving on to `O=C(O)C(=O)c1ccc(OCOc2ccccc2)cc1`
Data returned: n

Data request: Subsequent entry: `CCCc1c(OCCCOc2ccc(C(=O)C(=O)O)cc2)ccc(C(=O)O)c1O`
Data returned: y

Data request: Try this compound next: `O=C(O)/C(=N/O)c1ccc(OCCOc2ccc3ccccc3c2)s1`
Data returned: y

Data request: Also need `O=C(O)C(=O)c1ccc(OCCOc2ccc3ccccc3c2)cc1` , thanks.
Data returned: y

Data request: Moving on to the next compound: `O=C(O)C(=O)c1ccc(CCCOc2ccc3ccccc3c2)cc1`
Data returned: n

Data request: And then `C=CCO/N=C(\C(=O)O)c1ccc(OCCOc2ccc3ccccc3c2)s1` , what is it?
Data returned: y

Data request: What do we get for `CCC(C)(C)C(=O)OCc1cccc(C)c1/C=C/COc1ccc(C(=O)C(=O)O)cc1` ?
Data returned: y

Data request: Cool, now `CCO/N=C(\C(=O)O)c1ccc(OCCOc2ccc3ccccc3c2)s1`
Data returned: y

Data request: What would you report for `O=C(O)C(=O)c1ccc(OCCCC(=O)c2ccc3ccccc3c2)cc1` ?
Data returned: y

Data request: Queued: `COc1cc(OCCOc2ccc(C(=O)C(=O)O)cc2)cc(OC)c1OC`
Data returned: n

Data request: Queued: `O=C(O)C(=O)c1ccc(C#CCOc2ccc3ccccc3c2)cc1`
Data returned: y

Data request: Request: `O=C(O)C(=O)c1ccc(C(=O)NCCOc2ccc3ccccc3c2)cc1`
Data returned: y

Data request: Record: `O=C(O)C(=O)c1ccc(OCCOc2ccccc2F)cc1`
Data returned: y

Data request: Would you kindly repeat that for `O=C(O)C(=O)c1ccc(OCCCc2ccccc2)cc1` ?
Data returned: y

Data request: Would you mind doing `O=C(O)C(=O)c1ccc(OCCOc2cccc(F)c2)cc1` as well?
Data returned: y

Data request: Moving on to the next compound: `O=C(O)C(=O)c1ccc(OCc2ccc3ccccc3n2)cc1`
Data returned: n

Data request: Try this compound too: `O=C(O)C(=O)c1ccc(OCCOc2ccc(F)cc2)cc1`
Data returned: y

Data request: Next compound: `O=C(O)C(=O)c1ccc(OCC(=O)c2ccccc2-c2ccccc2)cc1`
Data returned: y

Data request: What do you have for `O=C(O)C(=O)c1ccc(OCC(=O)N2CCC(c3ccccc3)CC2)cc1` ?
Data returned: y

Data request: Consider next the compound `O=C(O)C(=O)c1ccc(OCCOc2ccc3ccccc3c2)c([N+](=O)[O-])c1` in the same way.
Data returned: y

Data request: Input `O=C(O)C(=O)c1ccc(OCCOC2CCCCCCC2)s1`
Data returned: y

Data request: Try `O=C(COc1ccc2ccccc2c1)Nc1ccc(C(=O)C(=O)O)cc1` next.
Data returned: y

Data request: Try `O=C(O)C(=O)c1c(F)cc(OCCOc2ccc3ccccc3c2)cc1F` next.
Data returned: y

---

Target: CAT-1 (carnitine acyltransferase 1) (Rattus norvegicus, UniProt Q63704)
Construct: This preparation is used as the isolated mitochondrial preparation; from tissue; host or cells: rat heart (atria removed), isolated mitochondria
Test: Primary Screen--Inhibition of CAT-1 in isolated mitochondria
Assay type: biochemical
Conditions: rat heart mitochondria, reduction of palmitoyl carnitine formation by 50%; read-out: Primary Screen IC50
readout name: IC50 (nM)
API: value field is a number in nM; no unit string.

Data request: Tell me the measured IC50 of O=C(O)C(=O)c1ccc(OCCCCc2ccccc2)cc1 [Example 25] , please.
Data returned: 2000

Data request: What do we get for O=C(O)C(=O)c1ccc(OCCOCCOc2ccccc2)cc1 [Example 77] ?
Data returned: 2000

Data request: Same thing, different compound: O=C(O)C(=O)c1ccc(OCCOCCOc2ccc(C(=O)C(=O)O)cc2)cc1 [Example 78]
Data returned: 2000

Data request: Next: COc1ccc(OCCOc2ccc(C(=O)C(=O)O)cc2)cc1 [Example 61]
Data returned: 2000

Data request: Next: O=C(O)C(=O)c1ccc(OCCCCc2ccncc2)cc1 [Example 125]
Data returned: 2000
